Assay: Pharmacokinetic study, oral administration to rats
Assay type: in vivo
Details: rat, blood, 120 min, equimolecular doses (Resveratrol 2 mg/Kg, complex 9.13 mg/Kg)
MEASUREMENT_NAME: concentration at 120 min (ng/mL)
Write the value in ng/mL as a bare number.

Value of concentration at 120 min reported for the compound Oc1ccc(/C=C/c2cc(O)cc(O)c2)cc1 [trans-Resveratrol] is 11

* * *

Experiment: Pharmacokinetic study, oral administration to rats
Assay type: in vivo
Conditions: rat, blood, 240 min, equimolecular doses (Resveratrol 2 mg/Kg, complex 9.13 mg/Kg)
MEASUREMENT_NAME: concentration at 240 min (ng/mL)
Write the value in ng/mL as a bare number.

Value of concentration at 240 min reported for the compound Oc1ccc(/C=C/c2cc(O)cc(O)c2)cc1 [trans-Resveratrol] is 0

* * *

Test: Pharmacokinetic study, oral administration to rats
Assay type: in vivo
Conditions: rat, blood, 30 min, equimolecular doses (Resveratrol 2 mg/Kg, complex 9.13 mg/Kg)
MEASUREMENT_NAME: concentration at 30 min (ng/mL)
Write the value in ng/mL as a bare number.

Value of concentration at 30 min reported for the compound Oc1ccc(/C=C/c2cc(O)cc(O)c2)cc1 [trans-Resveratrol] is 34

* * *

Test: Pharmacokinetic study, oral administration to rats
Type: in vivo
Conditions: rat, blood, 15 min, equimolecular doses (Resveratrol 2 mg/Kg, complex 9.13 mg/Kg)
MEASUREMENT_NAME: concentration at 15 min (ng/mL)
Write the value in ng/mL as a bare number.

Value of concentration at 15 min reported for the compound Oc1ccc(/C=C/c2cc(O)cc(O)c2)cc1 [trans-Resveratrol] is 18
